Measured EC50, listed per entry.
- study.system: Melanocortin receptor 3 (Homo sapiens)
- Sequence (P41968 whole entry): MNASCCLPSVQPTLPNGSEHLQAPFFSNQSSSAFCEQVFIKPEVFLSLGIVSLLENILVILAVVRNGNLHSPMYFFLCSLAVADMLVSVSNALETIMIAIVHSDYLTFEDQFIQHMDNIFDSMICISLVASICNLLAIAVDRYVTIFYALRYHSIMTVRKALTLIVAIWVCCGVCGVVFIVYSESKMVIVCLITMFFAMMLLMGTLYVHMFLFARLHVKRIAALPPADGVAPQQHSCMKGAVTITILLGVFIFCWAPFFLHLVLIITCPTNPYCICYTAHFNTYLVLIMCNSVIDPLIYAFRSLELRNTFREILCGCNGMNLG
- run.description: Agonist activity at human MC3R expressed in HEK2936E cells assessed as cAMP production in presence of IBMX by time resolved fluorescence assay
*1 amine or outer side, *2 acyl side, *3 side chain or, on linkers, in order; H or OH if unused. Where a SMILES comes first, the peptide text is derived from it. Bridges are numbered along the chain shown (N, C = ends). [ ]: non-standard residue; d: D form. mXylylene = c1cc(C[*:1])cc(C[*:2])c1; NMeR = CN[C@@H](CCCNC(=N)N)C(=O)O; X1 = n1nc([*:2])nnc1[*:1]; Nle = CCCC[C@H](N)C(=O)O
Write the number in nM without appending the unit.

CCCC[C@@H]1NC(=O)[C@@H]2CSc3nnc(nn3)SC[C@H](NC(=O)[C@H](CCCNC(=N)N)NC(=O)[C@H](CC(=O)O)NC(=O)[C@H](Cc3c[nH]c4ccccc34)NC(=O)[C@H](CCCNC(=N)N)NC(=O)[C@H](Cc3ccccc3)NC(=O)[C@H](Cc3cnc[nH]3)NC(=O)CNC1=O)C(=O)N[C@@H](Cc1cnc[nH]1)C(=O)N[C@@H](Cc1ccccc1)C(=O)N[C@@H](CCCNC(=N)N)C(=O)N[C@@H](Cc1c[nH]c3ccccc13)C(=O)N[C@@H](CCCNC(=N)N)C(=O)N2 (cyclo(CHFRWRC[Nle]GHFRWDR); linker 1-7 via X1): 0.182

Here is another compound to look at.
Measured EC50 of CC[C@H](C)[C@@H]1NC(=O)[C@@H]2CCCN2C(=O)[C@H](Cc2c[nH]c3ccccc23)NC(=O)[C@H](CCCNC(=N)N)N(C)C(=O)[C@H](Cc2ccccc2)NC(=O)[C@H](Cc2cnc[nH]2)NC(=O)[C@H]([C@@H](C)O)NC(=O)[C@@H](NC(C)=O)CSCc2cccc(c2)CSC[C@@H](C(N)=O)NC1=O (Ac-CTHF[NMeR]WPIC-NH2; linker 1-9 via mXylylene) : 195

---

- Species on record: Homo sapiens
- run.description: Selectivity ratio of Ki for human MC3R to Ki for human MC1R
*1 amine or outer side, *2 acyl side, *3 side chain or, on linkers, in order; H or OH if unused. Where a SMILES comes first, the peptide text is derived from it. Bridges are numbered along the chain shown (N, C = ends). [ ]: non-standard residue; d: D form. X4 = C#CCCCCN1C(=O)C([*:1])=C([*:2])C1=O; X3 = NC(=O)/C(=C(\C(=O)O)[*:2])[*:1]; pXylylene = c1cc(C[*:2])ccc1C[*:1]; NMeR = CN[C@@H](CCCNC(=N)N)C(=O)O; Nle = CCCC[C@H](N)C(=O)O
measurement.name: Ratio Ki

CC[C@H](C)[C@@H]1NC(=O)[C@@H]2CCCN2C(=O)[C@H](Cc2c[nH]c3ccccc23)NC(=O)[C@H](CCCNC(=N)N)N(C)C(=O)[C@H](Cc2ccccc2)NC(=O)[C@H](Cc2cnc[nH]2)NC(=O)[C@H]([C@@H](C)O)NC(=O)[C@@H](NC(C)=O)CSCc2ccc(cc2)CSC[C@@H](C(N)=O)NC1=O (Ac-CTHF[NMeR]WPIC-NH2; linker 1-9 via pXylylene): 87
CCCC[C@@H]1NC(=O)[C@@H]2CS/C(C(=O)O)=C(/C(N)=O)SC[C@H](NC(=O)[C@H](CCCNC(=N)N)NC(=O)[C@H](CC(=O)O)NC(=O)[C@H](Cc3c[nH]c4ccccc34)NC(=O)[C@H](CCCNC(=N)N)NC(=O)[C@H](Cc3ccccc3)NC(=O)[C@H](Cc3cnc[nH]3)NC(=O)CNC1=O)C(=O)N[C@@H](Cc1cnc[nH]1)C(=O)N[C@@H](Cc1ccccc1)C(=O)N[C@@H](CCCNC(=N)N)C(=O)N[C@@H](Cc1c[nH]c3ccccc13)C(=O)N[C@@H](CCCNC(=N)N)C(=O)N2 (cyclo(CHFRWRC[Nle]GHFRWDR); linker 1-7 via X3): 30
C#CCCCCN1C(=O)C2=C(SC[C@@H]3NC(=O)[C@H](CCCNC(=N)N)NC(=O)[C@H](CC(=O)O)NC(=O)[C@H](Cc4c[nH]c5ccccc45)NC(=O)[C@H](CCCNC(=N)N)NC(=O)[C@H](Cc4ccccc4)NC(=O)[C@H](Cc4cnc[nH]4)NC(=O)CNC(=O)[C@H](CCCC)NC(=O)[C@H](CS2)NC(=O)[C@H](CCCNC(=N)N)NC(=O)[C@H](Cc2c[nH]c4ccccc24)NC(=O)[C@H](CCCNC(=N)N)NC(=O)[C@H](Cc2ccccc2)NC(=O)[C@H](Cc2cnc[nH]2)NC3=O)C1=O (cyclo(CHFRWRC[Nle]GHFRWDR); linker 1-7 via X4): 9
CC[C@H](C)[C@@H]1NC(=O)[C@@H]2CCCN2C(=O)[C@H](Cc2c[nH]c3ccccc23)NC(=O)[C@H](CCCNC(=N)N)N(C)C(=O)[C@H](Cc2ccccc2)NC(=O)[C@H](Cc2cnc[nH]2)NC(=O)[C@H]([C@@H](C)O)NC(=O)[C@H](NC(C)=O)CCSSCC[C@H](C(N)=O)NC1=O: 110

Here is another compound to look at.
Measured Ratio Ki of CCCC[C@@H]1NC(=O)[C@@H]2CSSC[C@H](NC(=O)[C@H](CCCNC(=N)N)NC(=O)[C@H](CC(=O)O)NC(=O)[C@H](Cc3c[nH]c4ccccc34)NC(=O)[C@H](CCCNC(=N)N)NC(=O)[C@H](Cc3ccccc3)NC(=O)[C@H](Cc3cnc[nH]3)NC(=O)CNC1=O)C(=O)N[C@@H](Cc1cnc[nH]1)C(=O)N[C@@H](Cc1ccccc1)C(=O)N[C@@H](CCCNC(=N)N)C(=O)N[C@@H](Cc1c[nH]c3ccccc13)C(=O)N[C@@H](CCCNC(=N)N)C(=O)N2 (cyclo(CHFRWRC[Nle]GHFRWDR); disulfide 1-7) : 6

Attribution: ChEMBL document CHEMBL5104192
